// provenance: patent EP4397674A1

Recorded kobs/I values for a group of compounds are listed next.
Molecular target: caspase-2 (Homo sapiens, UniProt P42575)
Sequence (P42575 170-333 limits assumed): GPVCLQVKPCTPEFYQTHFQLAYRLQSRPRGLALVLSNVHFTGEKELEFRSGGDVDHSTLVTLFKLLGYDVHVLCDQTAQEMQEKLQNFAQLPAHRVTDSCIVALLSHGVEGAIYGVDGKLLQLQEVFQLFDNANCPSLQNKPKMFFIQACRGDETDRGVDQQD
Sequence (P42575 348-452 limits assumed): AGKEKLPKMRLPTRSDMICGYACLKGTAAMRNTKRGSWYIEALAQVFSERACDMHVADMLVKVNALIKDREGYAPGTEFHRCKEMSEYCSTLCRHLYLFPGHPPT
Experiment: Enzymatic kinetic studies, determination of kobs/I inhibition parameter
Format: biochemical
Parameters: made in house
Details: Caspase-2; pseudo-first-order conditions; substrate NH-ldc-hGlu-Thr(Bzl)-Ser-Asp-ACC (50uM); 37°C; dot = thousands separator
Protocol: The measurement of kobs/l inhibition parameter (second order rate of enzyme inhibition) of synthesized inhibitors towards caspases-2, -3, and -8 was performed using a fMax spectrofluorimeter (Molecular Devices, Sunnyvale, CA, USA) operating in fluorescence kinetic mode in 96-well Corning (Corning, NY, USA) plates. […] The kobs/l parameter was measured under pseudo-first-order kinetic conditions ([I] » [E]). […] The ACC fluorescence was monitored using 355 nm (excitation) and 460 nm (emission) wavelengths. […]
Quick reminder: number only, in M⁻¹ s⁻¹, skip the unit.

# count of solved cases: 3
Cc1cccc(C)c1C(=O)OCC(=O)[C@H](CC(=O)O)NC(=O)[C@H](CCCN)NC(=O)[C@@H](NC(=O)[C@H](CCCC(=O)O)NC(=O)[C@@H]1Cc2ccccc2N1)[C@@H](C)OCc1ccccc1	390.000
Cc1cccc(C)c1C(=O)OCC(=O)[C@H](CC(=O)O)NC(=O)[C@H](CO)NC(=O)[C@@H](NC(=O)[C@H](CCCC(=O)O)NC(=O)[C@@H]1Cc2ccccc2N1)[C@@H](C)OCc1ccccc1 [NH-Idc-hGlu-Thr(Bzl)-Ser-Asp-AOMK, reference compound]	665.000
Cc1cccc(C)c1C(=O)OCC(=O)[C@H](CC(=O)O)NC(=O)[C@H](CCCCN)NC(=O)[C@@H](NC(=O)[C@H](CCCC(=O)O)NC(=O)[C@@H]1Cc2ccccc2N1)[C@@H](C)OCc1ccccc1	400.000

Let us examine a further case.
Challenge: GET /values?readout=kobs/I&item= Cc1cccc(C)c1C(=O)OCC(=O)[C@H](CC(=O)O)NC(=O)[C@H](CCN)NC(=O)[C@@H](NC(=O)[C@H](CCCC(=O)O)NC(=O)[C@@H]1Cc2ccccc2N1)[C@@H](C)OCc1ccccc1
Response given: 342.000
